Tested on: blackgrass (Alopecurus myosuroides)
Assay: Test A postemergence, blackgrass
Format: in vivo
Settings: 500 g ai/ha, 0 to 100 scale, 0 is no effect, 100 is complete control
# key: entry, value: Blackgrass plant response rating
observable: Blackgrass plant response rating

> print(dat)
                                    compound                        observable  resultvalue
 1  C[C@@H](Nc1ncc(C(F)(F)F)c(N)n1)c1coc2ccccc12 [Compound 52]  Blackgrass plant response rating           90
 2  CC(Nc1ncc(C(F)(F)F)c(N)n1)c1coc2cc(F)ccc12 (racemic) [Compound 51]  Blackgrass plant response rating           10
 3  C[C@H](Nc1ncc(C(F)(F)F)c(N)n1)c1csc2ccccc12 [Compound 42]  Blackgrass plant response rating            0
 4  CC[C@H](Nc1ncc(C(F)(F)F)c(N)n1)c1cc2ccc(F)cc2s1 [Compound 49]  Blackgrass plant response rating            0
 5  C[C@H](Nc1ncc(C(F)(F)F)c(N)n1)c1cc2ccc(F)cc2s1 [Compound 47]  Blackgrass plant response rating           30
 6  C[C@@H](Nc1ncc(C(F)(F)F)c(N)n1)c1cc2ccc(F)cc2s1 [Compound 46]  Blackgrass plant response rating           30
 7  CC[C@@H](Nc1ncc(C(F)(F)F)c(N)n1)c1cc2ccc(F)cc2s1 [Compound 48]  Blackgrass plant response rating           30
 8  CC[C@@H](Nc1ncc(C(F)(F)F)c(N)n1)c1cc2ccccc2s1 [Compound 43]  Blackgrass plant response rating           20
 9  C[C@@H](Nc1ncc(C(F)(F)F)c(N)n1)c1csc2ccccc12 [Compound 41]  Blackgrass plant response rating            0
10  CCC(Nc1ncc(C(F)(F)F)c(N)n1)c1coc2ccccc12 (racemic) [Compound 53]  Blackgrass plant response rating            0
11  CC(C)[C@@H](Nc1ncc(C(F)(F)F)c(N)n1)c1cc2ccccc2s1 [Compound 50]  Blackgrass plant response rating            0
12  CC[C@H](Nc1ncc(C(F)(F)F)c(N)n1)c1cc2ccccc2s1 [Compound 44]  Blackgrass plant response rating           20

###

System: kochia (Kochia scoparia)
Assay: Test A preemergence, kochia
Format: in vivo
Settings: 500 g ai/ha, 0 to 100 scale, 0 is no effect, 100 is complete control
# key: entry, value: Kochia plant response rating
observable: Kochia plant response rating

> print(dat)
                                    compound                    observable  resultvalue
 1  C[C@@H](Nc1ncc(C(F)(F)F)c(N)n1)c1cc2cccc(F)c2s1  Kochia plant response rating          100
 2  Cc1ccc2c([C@@H](Nc3ncc(C(F)(F)F)c(N)n3)C3CC3)coc2c1  Kochia plant response rating            0
 3  Nc1nc(NC(c2cc3ccccc3o2)C2CC2)ncc1C(F)(F)F (stereo not drawn) [Compound 89]  Kochia plant response rating            0
 4  C[C@@H](Nc1ncc(C(F)(F)F)c(N)n1)c1cc2ccccc2n1C  Kochia plant response rating            0
 5  CC(Nc1nc(N)c(C(F)(F)F)c(C(F)(F)F)n1)C1Cc2ccccc2C1 (racemic)  Kochia plant response rating           70
 6  CC[C@H](Nc1ncc(C(F)(F)F)c(N)n1)c1cc2ccc(F)cc2o1  Kochia plant response rating            0
 7  CC[C@@H](Nc1ncc(C(F)(F)F)c(N)n1)c1cc2ccccc2s1  Kochia plant response rating          100
 8  CC(Nc1ncc(C(F)(F)F)c(N)n1)c1coc2cc(F)ccc12 (racemic)  Kochia plant response rating          100
 9  CC(Nc1nc(N)c(C(F)(F)F)c(C(F)(F)F)n1)c1coc2ccccc12 (stereo not drawn)  Kochia plant response rating            0
10  C[C@@H](Nc1nc(N)c(C(F)(F)F)c(C(F)(F)F)n1)c1cc2ccccc2s1  Kochia plant response rating           80
11  C[C@H](Nc1ncc(C(F)(F)F)c(N)n1)c1cc2ccc(F)cc2s1  Kochia plant response rating            0
12  CC(Nc1nc(N)c(C(F)(F)F)c(C(F)(F)F)n1)c1cc2ccccc2o1 (racemic)  Kochia plant response rating            0
13  Cc1ccc2c(C(C)Nc3ncc(C(F)(F)F)c(N)n3)coc2c1 (stereo not drawn)  Kochia plant response rating           90
14  CC(C)[C@@H](Nc1ncc(C(F)(F)F)c(N)n1)c1cc2ccccc2s1  Kochia plant response rating           60
15  C[C@@H](Nc1ncc(C(F)(F)F)c(N)n1)c1cc2cccc(F)c2o1  Kochia plant response rating          100
16  CC(=O)c1cnc(NC(C)c2cc3ccccc3s2)nc1N (stereo not drawn)  Kochia plant response rating           60
17  C[C@@H](Nc1ncc(C(F)(F)F)c(N)n1)c1coc2cc(Cl)ccc12  Kochia plant response rating           90
18  C[C@@H](Nc1ncc(C(F)(F)F)c(N)n1)c1csc2ccccc12  Kochia plant response rating           90

###

Tested on: ragweed (common ragweed, Ambrosia elatior)
Assay: Test A postemergence, ragweed
Type: in vivo
Conditions: 125 g ai/ha, 0 to 100 scale
observable: Plant response rating, Ragweed

> print(dat)
                                    compound                      observable  resultvalue
 1  C[C@@H](Nc1ncc(C(F)(F)F)c(N)n1)c1ccc2ccccc2c1 [Compound 1]  Plant response rating, Ragweed            0
 2  CCc1ccc2oc([C@@H](C)Nc3ncc(C(F)(F)F)c(N)n3)cc2c1 [Compound 17]  Plant response rating, Ragweed            0
 3  C[C@H](Nc1ncc(C(F)(F)F)c(N)n1)c1cc2ccccc2s1 [Compound 5]  Plant response rating, Ragweed            0
 4  CC(COc1cc(F)c(F)c(F)c1)Nc1ncc(C(F)(F)F)c(N)n1 (stereo not drawn) [Compound 36]  Plant response rating, Ragweed            0
 5  C[C@@H](Nc1ncc(C(F)(F)F)c(N)n1)c1cc2cc(Cl)ccc2o1 [Compound 2]  Plant response rating, Ragweed            0
 6  Nc1nc(NC(c2cc3ccccc3o2)C2CC2)ncc1C(F)(F)F (racemic) [Compound 18]  Plant response rating, Ragweed           20
 7  C[C@H](Nc1ncc(C(F)(F)F)c(N)n1)C1Cc2ccccc2C1 [Compound 12]  Plant response rating, Ragweed            0
 8  CC[C@H](COc1cc(C)cc(C)c1)Nc1ncc(C(F)(F)F)c(N)n1 [Compound 27]  Plant response rating, Ragweed           20
 9  Cc1cc2oc([C@@H](C)Nc3ncc(C(F)(F)F)c(N)n3)cc2cc1F [Compound 31]  Plant response rating, Ragweed           60
10  CC(Nc1ncc(C#N)c(N)n1)c1cc2ccccc2o1 (racemic) [Compound 19]  Plant response rating, Ragweed            0
11  CC(Nc1ncc(C(F)(F)F)c(N)n1)c1csc2ccccc12 (stereo not drawn) [Compound 40]  Plant response rating, Ragweed           30
12  CCC(Nc1ncc(C#N)c(N)n1)c1cc2ccccc2o1 (racemic) [Compound 20]  Plant response rating, Ragweed           20
13  CC(COc1cc(F)cc(F)c1)Nc1ncc(C(F)(F)F)c(N)n1 (stereo not drawn) [Compound 33]  Plant response rating, Ragweed            0
14  Cc1cc2cc([C@@H](C)Nc3ncc(C(F)(F)F)c(N)n3)oc2cc1C [Compound 11]  Plant response rating, Ragweed           40
15  C[C@@H](Nc1ncc(C(F)(F)F)c(N)n1)c1cc2cc(C(F)(F)F)ccc2o1 [Compound 7]  Plant response rating, Ragweed            0
16  CC(Nc1ncc(C(F)(F)F)c(N)n1)c1cc2ccccc2s1 (racemic) [Compound 16]  Plant response rating, Ragweed            0
17  CC(CCc1ccccc1)Nc1ncc(C(F)(F)F)c(N)n1 (stereo not drawn) [Compound 23]  Plant response rating, Ragweed            0
18  CC(COc1cccc(C(F)(F)F)c1)Nc1ncc(C(F)(F)F)c(N)n1 (stereo not drawn) [Compound 34]  Plant response rating, Ragweed            0

###

Tested on: ryegrass, Italian (Lolium multiflorum)
Assay: Test A preemergence, Italian ryegrass
Assay type: in vivo
Settings: 500 g ai/ha, 0 to 100 scale, 0 is no effect, 100 is complete control
# key: entry, value: Ryegrass, Italian plant response rating
observable: Ryegrass, Italian plant response rating

> print(dat)
                                   molecule  resultvalue
1  C[C@H](Nc1nc(N)c(C(F)(F)F)c(C(F)(F)F)n1)c1cc2ccccc2o1 [Compound 66]            0
2  CC[C@H](Nc1ncc(C(F)(F)F)c(N)n1)c1cc2ccccc2s1 [Compound 44]            0
3  CC[C@@H](Nc1ncc(C(F)(F)F)c(N)n1)c1cc2ccc(F)cc2o1 [Compound 63]           90
4  CC(Nc1nc(N)c(C(F)(F)F)c(C(F)(F)F)n1)c1cc2ccccc2o1 (racemic) [Compound 58]            0
5  CC[C@@H](Nc1ncc(C(F)(F)F)c(N)n1)c1coc2ccccc12 [Compound 80]          100
6  Nc1nc(NC(c2coc3ccccc23)C2CC2)ncc1C(F)(F)F (racemic) [Compound 95]           60
7  CC[C@H](Nc1ncc(C(F)(F)F)c(N)n1)c1coc2ccccc12 [Compound 81]           60
8  CC[C@@H](Nc1ncc(C(F)(F)F)c(N)n1)c1cc2ccc(F)cc2s1 [Compound 48]           60
